These measurements were taken from PubChem BioAssay (NCI).

System: SF-295 CNS
Test: NCI tumour cell line growth inhibition, 48 h
Recorded TGI for the following molecules

MOLECULE	TGI
COc1cccc2c1OC1(C=C2)Oc2ccccc2C(=O)N1C (stereo not given)	97.9 µM
Cn1cnc([N+](=O)[O-])c1S(=O)(=O)Oc1cccc2ccccc12	> 65.3 µM
c1c[nH]c(-c2ccc(-c3ccc[nH]3)c3nsnc23)c1	> 100 µM
CC(=O)OC1=CC(n2cc(F)c(=O)[nH]c2=O)OC(C)C1=O (stereo not given)	> 100 µM
CCN(CC)CCn1c(=O)c2cccnc2n2c3c(=O)n(C)c(=O)n(C)c3nc12	> 100 µM
COc1ccc([C@H]2[C@@H](F)C(=O)N2c2cc(OC)c(OC)c(OC)c2)cc1F	> 100 µM
Cc1cn(C2CC(O)C(CO)O2)c(=O)[nH]c1=O (stereo not given)	> 5000 µM
O=C(CC(C(=O)c1ccsc1)c1ccc2c(c1)OCO2)c1ccccc1 (stereo not given)	> 100 µM
C/C(=N\NC(=S)NC(CCC(=O)O)C(=O)O)c1ccccn1 (stereo not given)	> 100 µM
COc1cc(/C=C/C(=O)CC(=O)/C=C/c2ccc(OC(=O)CCCCC3CCSS3)c(OC)c2)ccc1OC(=O)CCCCC1CCSS1 (stereo not given)	> 100 µM
